- Tested on: CCRF-CEM leukemia
- assayText: NCI tumour cell line growth inhibition, 48 h; in the data active means GI50 below about 0.43 µM; inactive means the rest
The categories you may choose from are active, inactive

Below, 5 compounds whose answers are already recorded.
COc1cc(/C=C/c2cc(/C=C/c3ccc(O)c(OC)c3)[nH]c(=O)n2)ccc1O    inactive
CC(C)(F)C[C@H](N[C@@H](c1ccc(-c2ccc(S(C)(=O)=O)cc2)cc1)C(F)(F)F)C(=O)NC1(C#N)CC1    inactive
N=C1C(c2nc(-c3ccc(Br)cc3)cs2)=C(O)CN1CC1CCCO1 (centres undefined)    inactive
O=C(Nc1cccc([N+](=O)[O-])c1)c1cc2ccccc2cc1O    inactive
O=[N+]([O-])c1ccc(NC(=S)N/N=C(\c2ccccc2)c2ccccn2)cc1    active

Returns: the outcome recorded for CN(C)CCNc1c2c(c(NCCN(C)C)c3c(CO)c[nH]c13)C(=O)c1ccccc1C2=O in this assay.
inactive

Returns: the outcome recorded for Cc1ccc(S(=O)(=O)c2ccsc2N)cc1 in this assay.
inactive

Returns: the outcome recorded for CC(=O)O[C@H](C[C@H](C(C)C)N(C)C(=O)[C@@H](NC(=O)[C@H]1CCCCN1C)C(C)(C)C)c1nc(C(=O)N[C@@H](Cc2ccccc2)C[C@H](C)C(=O)O)cs1 in this assay.
active

Returns: the outcome recorded for C=C1C[C@@H]2[C@H](CC[C@]3(C)C(=O)CC[C@@H]23)[C@@]2(C)C=CC(=O)C=C12 in this assay.
inactive

---

- System: OVCAR-8 ovarian
- assayText: NCI tumour cell line growth inhibition, 48 h
readoutType: TGI

// known answers, use as guide
COc1cc2c(cc1O)CC[C@@H]1C2CC[C@@]2(C)C1CC[C@@H]2O (some centres undefined)    39.4 µM
COc1cc(CC2CC(c3ccc4c(c3)OCO4)OC2=O)cc(OC)c1OC (centres undefined)    > 100 µM
Cc1cccc2c1C(=O)[C@@](C)([C@]1(C)Nc3cccc(C)c3C1=O)N2    > 100 µM

Continue with the compound presented below.
Lab note: need TGI with OVCAR-8 ovarian for entry Cc1ccc(C)c2c1CCc1cc3ccccc3nc1-2 , please look it up.
> 100 µM

---

- System: MDA-MB-231 breast
- assayText: NCI tumour cell line growth inhibition, 48 h
Consider the following compounds; for each one, report its TGI.

// known answers, use as guide
NC(=S)N/N=C\c1nccc2c(C(F)(F)C(F)(F)C(F)(F)F)cccc12    3 µM
C=CCn1c(=O)c2ccccc2[n+]2c(-c3cccc([N+](=O)[O-])c3)csc12    > 100 µM
C=C1C(=O)O[C@H]2C/C(C=O)=C\[C@H]3O[C@H]3/C(COC(=O)C(C)C)=C/CC12 (some centres not stated)    17.3 µM
CC(C)N(Cc1ccccc1)S(=O)(=O)c1n[nH]c(C(C)(C)C)n1    > 100 µM

Parameter requested: TGI. Apply to each item below.
1. Cc1cc(S(=O)(=O)Nc2nc3cc(-c4ccsc4)sc3c(=O)n2N)c(S)cc1Cl
2. O=C(Nc1cccc([N+](=O)[O-])c1)c1cc2ccccc2cc1O
3. CC(=O)Nc1cc2cc(NS(=O)(=O)c3cc(C(F)(F)F)cc(C(F)(F)F)c3)ccc2oc1=O
4. COC(=O)C1[C@H](C(=O)OC)C1(Br)CBr (some centres not stated)

["> 100 µM", "3.64 µM", "> 100 µM", "> 100 µM"]

The measurements presented in this section are drawn from PubChem BioAssay (NCI).
